B1: Pistol ribozyme (parent)
chain: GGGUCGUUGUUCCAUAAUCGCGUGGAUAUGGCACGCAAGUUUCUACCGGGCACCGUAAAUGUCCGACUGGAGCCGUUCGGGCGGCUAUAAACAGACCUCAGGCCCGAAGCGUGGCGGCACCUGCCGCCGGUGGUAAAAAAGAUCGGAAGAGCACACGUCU

# Variants of: B1
# assay.overview: aptazyme ON/OFF ratio, guanine; higher = stronger switching; co-transcriptional cleavage with and without guanine
Listing of entries alongside the reported aptazyme ON/OFF ratio.
Reply with the value as a number alone.

Below, each entry is followed by its recorded aptazyme ON/OFF ratio result.
- mutant.name: "U7C U8C U10G U11G C12U C13U"
  aptazyme ON/OFF ratio: 1.08
- mutant.name: "U7G U8G G9C U10G U11G C12A C13A"
  aptazyme ON/OFF ratio: 1.09
- mutant.name: "U8C G9A U10A U11C C12A C13U"
  aptazyme ON/OFF ratio: 1.19

Query block: For the variant U8G G9A U10C C12A C13U , what aptazyme ON/OFF ratio is on record?
Result block: 1.17

Query block: GET /values?readout=aptazyme ON/OFF ratio&item= U7A G9U U10C C13A
Result block: 1.09

Query block: I have this variant here, U7G G9U U10G U11A C12U , and I need its recorded aptazyme ON/OFF ratio.
Result block: 1.27

Query block: If you can, please state the reported aptazyme ON/OFF ratio value of U8G G9C U11C C13G .
Result block: 1.04

Query block: Need aptazyme ON/OFF ratio of U7G U8G U10G U11A C12A , thanks.
Result block: 1.18

Query block: Recorded aptazyme ON/OFF ratio for U7A U8A G9U U10G U11C C12U C13U , please?
Result block: 1.28

Query block: Given U8C U10G C12G C13G , state its recorded aptazyme ON/OFF ratio.
Result block: 1.12

Query block: Find the recorded aptazyme ON/OFF ratio belonging to U7G U8A G9A U10A U11C C12U and report it.
Result block: 1.04

Each recorded value in this set is attributed to the RNAGym collection of RNA variant scans (doi:10.1021/acssynbio.7b00057).
